# Test System: Neurogenic locus notch homolog protein 3 (Homo sapiens)
# Method Summary: NOTCH3 binders on small-molecule microarray, primary screen, biochemical, 635/667 nm fluorescence (AID 1096)
# Condition Label: NOTCH3 binding, 635 nm fluorescence, higher = more signal
Test Readout: composite z-score
Format: numeric value only, no unit, no commentary.

Form field - read-out: composite z-score; system: Neurogenic locus notch homolog protein 3 (Homo sapiens); submitted item: "COCCOC(=O)N1C(=O)[C@@]2(c3cc(C#CCC(C(=O)OC)C(=O)OC)ccc31)[C@H](C(=O)N1CCN(c3ncccn3)CC1)[C@H]1C(=O)O[C@H](c3ccccc3)[C@H](c3ccccc3)N1[C@@H]2c1ccc(O)cc1"
1.17

Now the molecule "C=CCOC(=O)[C@@H]1[C@H]2C(=O)O[C@H](c3ccccc3)[C@H](c3ccccc3)N2[C@H](c2ccc(OCCOC(=O)[C@H]3C[C@H]4C(=O)N[C@@H](CCCCNC(C)=O)C(=O)N4[C@H]3c3ccc(O)cc3)cc2)[C@@]12C(=O)Nc1ccc(I)cc12"
1.07

Now the molecule "C/C(=N\O)C(=O)NCCCCCNC(=O)OCc1ccccc1"
0.996

Now the molecule "COc1ccc(-c2ccccc2[C@@H]2N[C@H](C(=O)O)CC[C@H]2C)cc1"
0.412

Now the molecule C=C(C)[C@@H]1CC=C(C(O)C2C=CC3C(=O)NC(=O)C3N2Nc2ccccn2)CC1 (stereo partly specified)
1.02

Now the molecule "CC(C)[Si]1(C(C)C)OCc2cc(C3CC3)nc(-c3ccccc3)c21"
-0.802

Now the molecule O=C1NC(=O)C2C1C=CC(C(O)C=Cc1ccc([N+](=O)[O-])cc1)N2Nc1ccccn1 (stereo unspecified)
-0.135

Now the molecule "CCCC[C@H]1OB(O)C[C@H]2C1=C(COC)C[C@H]1C(=O)N(Cc3ccccc3)C(=O)[C@H]12"
0.75

Now the molecule "CO[C@H]1O[C@H](CO)[C@@H](OC(=O)Nc2ccccc2)[C@H](OC(=O)Nc2ccc3c(c2)OCO3)[C@@H]1OC(=O)Nc1ccc2c(c1)OCO2"
0.845

Now the molecule "CO[C@H]1COC(=O)[C@H](CCSC)NC(=O)CC=C[C@@H](C)COC(=O)[C@@H](OCc2ccccc2)C=C[C@@H]1C"
0.13

Now the molecule "O=C1O[C@@H](c2ccccc2)[C@@H](c2ccccc2)N2[C@@H](c3ccccc3OCCO)[C@]3(C(=O)Nc4ccc(C#CC5=CCCCC5)cc43)[C@@H](C(=O)O)[C@H]12"
1.05

Now the molecule "C=C(COC)/C(=C/C[C@H](OC(C)=O)c1ccc(OCCO)cc1)c1cnc2ccccc2c1"
1.1

Now the molecule "CCCC[C@@H]1C[C@H]1[C@@H](NC(=O)c1ccccc1)c1ccccc1C(F)(F)F"
0.961

Now the molecule "C=CCN1C(=O)[C@@]2(O[C@@H](CCn3cc([C@H](O)c4ccccc4)nn3)[C@H]([Si](C)(C)c3ccc(OC)cc3)[C@H]2C)c2cc(N3CCOC3=O)ccc21"
0.131

Now the molecule "CO[C@H]1COC(=O)[C@H](C)NC(=O)CC=C[C@@H](C)[C@H](NS(=O)(=O)c2ccc(C)cc2)COC(=O)CC=C[C@@H]1C"
-0.734

Now the molecule "CC(=O)NCCCC[C@@H]1NC(=O)[C@H]2C[C@@H](C(=O)NCCCCCCN(C)C)[C@@H](c3cccc(OCCO)c3)N2C1=O"
1.02

Now the molecule "Cc1ccc(S[C@]2(C(=O)NCCN3CCOCC3)CC(=O)N(C3Cc4ccccc4C3)[C@@H]2c2ccc(CO)cc2I)cc1"
-0.484

Now the molecule C=CCC(OC(C)=O)[C@@H]1[C@@H](N(Cc2cccc3ccccc23)C(=O)c2ccc(C)cc2)c2cc(OCCCO)ccc2N1C(=O)c1ccc(-c2ccccc2)cc1 (stereo partly specified)
0.387

Now the molecule "CCCC[C@@H]1C[C@H]1[C@@H](NC(=O)c1cccs1)c1ccc(Cl)cc1"
-1.73

Now the molecule "C[C@@H]1CC[C@H]2C(=O)N3[C@@H](CC[C@@H](C)[C@@H]3c3cccc(N4CCOCC4)c3)C(=O)N2[C@H]1c1cccc(Br)c1"
0.981

Now the molecule "CCOC(=O)C1=CC[C@@H](c2ccc(-c3ccc(OCc4ccccc4)cc3)c(OC)c2)N(S(=O)(=O)c2ccc(C)cc2)[C@H]1c1ccccc1"
1.09

----------
# Test System: Epidermal growth factor receptor (Homo sapiens)
# Method Summary: EGFR binders on small-molecule microarrays, primary screen, biochemical, small-molecule microarray, 635 nm fluorescence (AID 1104);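 note: score merges 667 nm emission intensity with spot signal to noise over triplicate slides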
# Condition Label: EGFR binding, higher = more signal
For each of the compounds below, state its composite z-score.
Format: numeric value only, no unit, no commentary.

Form field - read-out: composite z-score; system: Epidermal growth factor receptor (Homo sapiens); submitted item: "CO[C@H]1COC(=O)CC=C[C@H](C)[C@@H](OC)COC(=O)[C@H](Cc2ccccc2)NC(=O)CC=C[C@@H]1C"
0.514

Now the compound "CCCC[C@@H]1C[C@H]1[C@@H](NC(=O)c1ccccc1)c1ccccc1C(F)(F)F"
-0.279

Now the compound "CCC#CCN(Cc1ccccc1Br)[C@H](/C=C/c1ccccc1)[C@@H](O)Cc1ccccc1"
-1.53

Now the compound "C=C[C@H](OC)[C@@H](OC(=O)Nc1ccc(SC)cc1)c1ccc(OC)c(O)c1"
-0.915

Now the compound O=C1OCC=C[C@H]2OC34C=CCN(Cc5ccccc5)C(=O)[C@H]3N(CCCCCO)C(=O)[C@@H]4[C@@H]12 (some centres not stated)
-1.36

Now the compound "CCOC(=O)C[C@H]1[C@H](OC(=O)c2cc3ccccc3oc2=O)[C@@H](NC(=O)c2ccc3ccccc3c2)c2cc(OCCCO)ccc2N1C(=O)c1ccc2ccccc2n1"
0.573

Now the compound "NC(=O)NCC#Cc1ccc2c(c1)[C@]1(C(=O)N2)[C@H](C(N)=O)[C@H]2C(=O)O[C@H](c3ccccc3)[C@H](c3ccccc3)N2[C@@H]1c1ccccc1OCCO"
0.269

Now the compound N#Cc1ccc(NN2C(C(O)CCc3ccccc3)C=CC3C(=O)N(c4ccccc4)C(=O)C32)cc1 (configuration not stated)
-0.164

Now the compound CC(C)C[C@@H]1NC(=O)[C@H](CC(C)C)NC(=O)[C@@]23C(=O)N[C@@H](Cc4ccccc4)C2[C@H](C)[C@@]2(C)O[C@H]2C3/C=C/CC/C=C/CNC1=O (some centres not stated)
0.543

Now the compound "CO[C@H]1COC(=O)[C@H](C)COC(=O)[C@H](Cc2ccccc2)NC(=O)CC=C[C@H]1C"
0.843

Now the compound CN1C(=O)C2C=CC(C(O)c3ccc(N(C)C)cc3)N(Nc3ccc([N+](=O)[O-])cc3[N+](=O)[O-])C2C1=O (configuration not stated)
0.737

Now the compound "COCCOC(=O)N1C(=O)[C@@]2(c3cc(C#CCC(C(=O)OC)C(=O)OC)ccc31)[C@H](C(=O)N1CCN(c3ncccn3)CC1)[C@H]1C(=O)O[C@H](c3ccccc3)[C@H](c3ccccc3)N1[C@@H]2c1ccc(O)cc1"
0.279

Now the compound "COc1cccc([C@@H]2[C@@H](C)CC[C@H]3C(=O)N4[C@H](c5cccc(OC)c5)[C@@H](C)CC[C@H]4C(=O)N23)c1"
0.518

Now the compound "COCCCNC(=O)[C@@]1(Sc2ccc(C)cc2)CC(=O)N(Cc2cc(C(F)(F)F)cc(C(F)(F)F)c2)[C@@H]1c1ccc(CO)cc1I"
-1.34

Now the compound "O=C(NCc1ccccc1)[C@@]1(Cc2ccccc2)COC(c2ccc(OCCCO)cc2)=N1"
-0.705

Now the compound "Cc1ccc(N2C(=O)c3ccccc3[C@](C)(C(=O)O)[C@@H]2c2ccc(CO)cc2)nc1"
-2.18

Now the compound "COCCOC(=O)N1C(=O)[C@@]2(c3cc(C#CCNC(N)=O)ccc31)[C@H](C(=O)N1CCCCCCC1)[C@H]1C(=O)O[C@H](c3ccccc3)[C@H](c3ccccc3)N1[C@@H]2c1ccccc1OCCO"
0.79

Now the compound "CO[C@H]1COC(=O)[C@@H](OCc2ccccc2)C=C[C@H](C)[C@@H](OC)COC(=O)[C@H](OCc2ccccc2)C=C[C@@H]1C"
-0.207

Now the compound "COC(=O)[C@@]1(Cc2ccccc2N=[N+]=[N-])N=C(c2ccc(OCCCO)cc2)O[C@H]1c1ccccc1CN=[N+]=[N-]"
-0.34

Now the compound "C=CC[C@]1(C(=O)OC)N=C(c2ccc(OCCCO)cc2)O[C@H]1c1ccccc1CN=[N+]=[N-]"
-0.493

Now the compound "CO[C@H]1COC(=O)[C@@H](C)COC(=O)[C@H](Cc2ccccc2)NC(=O)CC=C[C@H]1C"
1.04

Now the compound "CC(C)[Si](OCCCNS(=O)(=O)c1ccc(Br)cc1)(C(C)C)C(C)C"
0.742

From: PubChem BioAssay
